Data origin, for the record: patent US7666906B2

# TEST TARGET: human EAAT2 (Homo sapiens, UniProt P43004)
# Construct: expressed in transfected cells
# TEST NAME: inhibition of [14C]glutamate uptake by human EAAT2 expressed on MDCK or COS-1 cells
# Format: cell-based
# CONDITION PARAMETERS: stably expressed on MDCK cells; 1 μM L-[14C]glutamate, 12 minutes
REPORTED METRIC: pIC50
The read-out pIC50 is expressed as -log10 of concentration in moles per litre.

[[record]]
molecule = "NCCC(=O)Nc1cccc(CO[C@H](C(=O)O)[C@H](N)C(=O)O)c1 [AA-TBOA]"
test_target = "human EAAT2 (Homo sapiens, UniProt P43004)"
result_number = 4.89


// field: pIC50; key: N[C@H](C(=O)O)[C@H](OCc1cccc(NC(=O)c2ccc(-c3ccccc3)cc2)c1)C(=O)O [Ph-BzA-TBOA] ; value = 7.68

Consider N[C@H](C(=O)O)[C@H](OCc1cccc(NC(=O)c2ccc(F)cc2)c1)C(=O)O [F-BzA-TBOA] . Its measured pIC50 is 7.66

Looking up N[C@H](C(=O)O)[C@H](OCc1cccc(NC(=O)c2ccc(OC(F)(F)F)cc2)c1)C(=O)O [OCF3-BzA-TBOA] , I found its pIC50 recorded as 8.15

###

# TEST TARGET: human EAAT3 (Homo sapiens)
# Construct: expressed in transfected cells
# TEST NAME: inhibition of [14C]glutamate uptake by human EAAT3 expressed on MDCK or COS-1 cells
# Format: cell-based
# CONDITION PARAMETERS: COS-1 cells (transiently expressed), marked *; 1 μM L-[14C]glutamate, 12 minutes
REPORTED METRIC: pIC50
Field pIC50 (float): negative decimal logarithm of the concentration in molar.

pIC50 recorded for this compound, "CCC(=O)Nc1ccc(CO[C@H](C(=O)O)[C@H](N)C(=O)O)cc1" , is 3.53

###

# TEST TARGET: human EAAT2 (Homo sapiens)
# Construct: expressed in transfected cells
# TEST NAME: inhibition of [14C]glutamate uptake by human EAAT2 expressed on MDCK or COS-1 cells
# Format: cell-based
# CONDITION PARAMETERS: COS-1 cells (transiently expressed), marked *; 1 μM L-[14C]glutamate, 12 minutes
REPORTED METRIC: IC50
Remember to put the unit after the number in your answer.

// IC50 lookup, compound = "CCC(=O)Nc1ccc(CO[C@H](C(=O)O)[C@H](N)C(=O)O)cc1" , result: 111 µM

###

# TEST TARGET: human EAAT2 (Homo sapiens, UniProt P43004)
# Construct: expressed in transfected cells
# TEST NAME: inhibition of [14C]glutamate uptake by human EAAT2 expressed on MDCK or COS-1 cells
# Assay type: cell-based
# CONDITION PARAMETERS: stably expressed on MDCK cells; 1 μM L-[14C]glutamate, 12 minutes
The following molecules are shown together with reported log10 IC50 values.
Remember, log10 of IC50, in nM.

Here is how some molecules turned out for log10 IC50.
[[record]]
molecule = "CC(C)(C)C(=O)Nc1cccc(CO[C@H](C(=O)O)[C@H](N)C(=O)O)c1"
test_target = "human EAAT2 (Homo sapiens, UniProt P43004)"
result_number = 3.00

[[record]]
molecule = "N[C@H](C(=O)O)[C@H](OCc1ccccc1)C(=O)O [TBOA, L-threo-β-benzyloxyaspartate, reference compound]"
test_target = "human EAAT2 (Homo sapiens, UniProt P43004)"
result_number = 3.15

[[record]]
molecule = "N[C@H](C(=O)O)[C@H](OCc1cccc(NC(=O)CCNC(=O)CCCC[C@@H]2SC[C@@H]3NC(=O)N[C@@H]32)c1)C(=O)O"
test_target = "human EAAT2 (Homo sapiens, UniProt P43004)"
result_number = 3.80


So, CCC(=O)NCCC(=O)Nc1cccc(COC(C(=O)O)C(N)C(=O)O)c1 (stereo not drawn) ? Its log10 IC50 was 3.78

For reference, reported log10 IC50 for "COc1ccc(C(=O)Nc2cccc(CO[C@H](C(=O)O)[C@H](N)C(=O)O)c2)cc1OC" stands at 1.69

The value of log10 IC50 measured for the molecule "NCCCCCOc1ccc(C(=O)Nc2cccc(CO[C@H](C(=O)O)[C@H](N)C(=O)O)c2)cc1" turned out to be 3.86

Short answer for "CC(C)(C)c1ccc(C(=O)Nc2cccc(CO[C@H](C(=O)O)[C@H](N)C(=O)O)c2)cc1" : log10 IC50 was 1.40

# molecule "COc1ccccc1C(=O)Nc1cccc(CO[C@H](C(=O)O)[C@H](N)C(=O)O)c1" ; its log10 IC50 = 2.16

###

The following compounds are listed with their measured IC50 values.
# TEST TARGET: human EAAT2 (Homo sapiens)
# Construct: expressed in transfected cells
# TEST NAME: inhibition of [14C]glutamate uptake by human EAAT2 expressed on MDCK or COS-1 cells
# Assay type: cell-based
# CONDITION PARAMETERS: stably expressed on MDCK cells; 1 μM L-[14C]glutamate, 12 minutes
Express your answer in nM, writing the number without its unit.

[[record]]
structure_notation = "N#Cc1ccc(C(=O)Nc2cccc(CO[C@H](C(=O)O)[C@H](N)C(=O)O)c2)cc1"
result_number = 36

[[record]]
structure_notation = "CCC(=O)Nc1cccc(CO[C@H](C(=O)O)[C@H](N)C(=O)O)c1"
result_number = 2000

[[record]]
structure_notation = "N[C@H](C(=O)O)[C@H](OCc1cccc(NC(=O)CCCC[C@@H]2SC[C@@H]3NC(=O)N[C@@H]32)c1)C(=O)O"
result_number = 38000

[[record]]
structure_notation = "N[C@H](C(=O)O)[C@H](OCc1cccc(NC(=O)C2CCCCC2)c1)C(=O)O"
result_number = 244

[[record]]
structure_notation = "N[C@H](C(=O)O)[C@H](OCc1cccc(NC(=O)c2ccc(OCCCCCNC(=O)CCCC[C@@H]3SC[C@@H]4NC(=O)N[C@@H]43)cc2)c1)C(=O)O"
result_number = 2200


Proceed to the following item.
Entry "N[C@H](C(=O)O)[C@H](OCc1cccc(NC(=O)c2ccccc2)c1)C(=O)O" ; IC50 = 55

###

# TEST TARGET: human EAAT3 (Homo sapiens)
# Construct: expressed in transfected cells
# Sequence (P43005 1-524): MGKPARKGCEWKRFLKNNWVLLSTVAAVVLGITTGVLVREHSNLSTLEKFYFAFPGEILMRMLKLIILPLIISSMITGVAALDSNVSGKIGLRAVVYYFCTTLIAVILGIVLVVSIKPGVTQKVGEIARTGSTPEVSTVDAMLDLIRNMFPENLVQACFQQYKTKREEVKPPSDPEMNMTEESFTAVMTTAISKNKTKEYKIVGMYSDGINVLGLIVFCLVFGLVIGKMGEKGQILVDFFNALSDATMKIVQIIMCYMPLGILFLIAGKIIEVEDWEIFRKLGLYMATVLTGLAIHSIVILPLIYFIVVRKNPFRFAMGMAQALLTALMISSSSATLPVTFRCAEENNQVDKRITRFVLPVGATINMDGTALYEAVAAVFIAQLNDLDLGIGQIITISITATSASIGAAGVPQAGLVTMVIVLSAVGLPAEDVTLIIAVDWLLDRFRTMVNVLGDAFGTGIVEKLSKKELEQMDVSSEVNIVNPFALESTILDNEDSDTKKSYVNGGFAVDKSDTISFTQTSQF
# TEST NAME: inhibition of [14C]glutamate uptake by human EAAT3 expressed on MDCK or COS-1 cells
# Assay type: cell-based
# CONDITION PARAMETERS: stably expressed on MDCK cells; 1 μM L-[14C]glutamate, 12 minutes
REPORTED METRIC: IC50 (µM)
Just the number in µM, nothing appended.

[[record]]
structure_notation = "N[C@H](C(=O)O)[C@H](OCc1cccc(NC(=O)Cc2ccccc2)c1)C(=O)O"
test_target = "human EAAT3 (Homo sapiens)"
result_number = 0.529

[[record]]
structure_notation = "CCCCCCOc1ccc(C(=O)Nc2cccc(CO[C@H](C(=O)O)[C@H](N)C(=O)O)c2)cc1"
test_target = "human EAAT3 (Homo sapiens)"
result_number = 0.018

[[record]]
structure_notation = "COc1ccccc1C(=O)Nc1cccc(CO[C@H](C(=O)O)[C@H](N)C(=O)O)c1"
test_target = "human EAAT3 (Homo sapiens)"
result_number = 1

[[record]]
structure_notation = "CCC(=O)Nc1cccc(CO[C@H](C(=O)O)[C@H](N)C(=O)O)c1"
test_target = "human EAAT3 (Homo sapiens)"
result_number = 7.9

[[record]]
structure_notation = "N[C@H](C(=O)O)[C@H](OCc1cccc(NC(=O)c2ccc([N+](=O)[O-])cc2)c1)C(=O)O"
test_target = "human EAAT3 (Homo sapiens)"
result_number = 0.278


Hey, human EAAT3 (Homo sapiens) data for "NCCC(=O)Nc1cccc(CO[C@H](C(=O)O)[C@H](N)C(=O)O)c1" : IC50 came out at 13

Bench note, human EAAT3 (Homo sapiens): "COc1cccc(C(=O)Nc2cccc(CO[C@H](C(=O)O)[C@H](N)C(=O)O)c2)c1" , IC50 reads 0.356

GET /values?item= "N[C@H](C(=O)O)[C@H](OCc1cccc(NC(=O)CCCC[C@@H]2SC[C@@H]3NC(=O)N[C@@H]32)c1)C(=O)O" &system= human EAAT3 (Homo sapiens) returns IC50: 25
